Test: qHTS assay to identify small molecule agonists of the estrogen receptor beta (ER-beta) signaling pathway - cell viability counter screen (AID 1259380); note: nearly all actives have a fitted effect of over 30% in size; note: potency is the fitted concentration of half-maximal effect
Conditions: ER-beta-bla HEK293T viability, CellTiter-Glo luminescence, 16 h; series mostly up to 92.4 µM
Records with an inconclusive call do not appear. Calls of active or inactive are those of the source. Calls come from the whole dose curve; as a rule, active = well fitted cell-killing curve with a large enough effect in the repeat runs; inconclusive = weak or mixed curves, or effect the other way; inactive = flat fitted curve, though single readings scatter.
Measure Name: Potency

COc1ccc2cc(S(=O)(=O)N[C@H](CC(=O)N[C@H](Cc3ccc(CN4[C@H](C)CCC[C@@H]4C)cc3)C(=O)N(C)C(C)C)c3ccc4c(c3)OCO4)ccc2c1 : 18.3 µM (active)
CC(=O)Nc1c(I)c(NC(C)=O)c(I)c(C(=O)O)c1I : inactive
NC(=O)c1cccnc1 : inactive
O=C1c2c(O)cccc2Cc2cccc(O)c21 : inactive

---

Test: A CellTox Green Cytotoxicity Assay to monitor cytotoxicity in HEK293 cells - 40 hour (AID 1224871); note: nearly all actives have a fitted effect of over 45% in size
Conditions: CellTox Green fluorescence; series mostly up to 76.8 µM
Inconclusive results are not listed. Activity calls are given as the source filed them. The call rests on the fitted dose curve; in most records, active means well fitted activation curve with a large enough effect in the repeat runs; inconclusive means weak or mixed curves; inactive means flat fitted curve, though single readings scatter.
The reply should name one outcome from 1 = active, -1 = inactive

Solved entries:
Cc1cccc(C)c1 : -1
CN1[C@@H]2CC(OC(=O)[C@H](CO)c3ccccc3)C[C@H]1[C@@H]1O[C@@H]12 (stereo not given in full) : -1
CC(C)C(=O)Nc1ccc([N+](=O)[O-])c(C(F)(F)F)c1 : -1

Q) Assay outcome for CC(=O)C(=O)O : what was it?
A) -1

Q) Assay outcome for COc1ccc(CN(CCN(C)C)c2ccccn2)cc1 : what was it?
A) -1

Q) Assay outcome for NC1CCCCC1 : what was it?
A) -1

Q) Assay outcome for CC/C(=C(\c1ccccc1)c1ccc(OCCN(C)C)cc1)c1ccccc1 : what was it?
A) 1

Q) Assay outcome for O=C(Nc1ncc([N+](=O)[O-])s1)c1cccs1 : what was it?
A) -1

Q) Assay outcome for C[C@](N)(Cc1ccc(O)c(O)c1)C(=O)O : what was it?
A) -1

Q) Assay outcome for COc1ccc2cc(S(=O)(=O)N[C@H](CC(=O)N[C@H](Cc3ccc(CN4[C@H](C)CCC[C@@H]4C)cc3)C(=O)N(C)C(C)C)c3ccc4c(c3)OCO4)ccc2c1 : what was it?
A) 1

Q) Assay outcome for Cc1cc(=O)oc2cc(O)ccc12 : what was it?
A) -1

Q) Assay outcome for O=S1(=O)OC(c2ccc(O)cc2)(c2ccc(O)cc2)c2ccccc21 : what was it?
A) -1

Q) Assay outcome for C=CCc1ccc(O)c(OC)c1 : what was it?
A) -1

Q) Assay outcome for CCOC(N)=O : what was it?
A) -1

Q) Assay outcome for CC(=O)CCC(=O)O : what was it?
A) -1

Q) Assay outcome for NS(=O)(=O)c1cc2c(cc1Cl)NCNS2(=O)=O : what was it?
A) -1

Q) Assay outcome for CCCc1cc(=O)[nH]c(=S)[nH]1 : what was it?
A) -1

Q) Assay outcome for NC(=O)c1cccnc1 : what was it?
A) -1

Q) Assay outcome for CN(C)C(=O)Nc1ccc(Cl)c(Cl)c1 : what was it?
A) -1

Q) Assay outcome for CCCCC1(COC(=O)CCC(=O)O)C(=O)N(c2ccccc2)N(c2ccccc2)C1=O : what was it?
A) -1

---

Assay: qHTS assay to identify small molecule agonists of the AP-1 signaling pathway - cell viability counter screen (AID 1159525); note: nearly all actives have a fitted effect of over 55% in size
Details: ME-180 (cervical carcinoma) AP-1-bla cells viability, ATP luminescence, 5 h; series mostly up to 76.8 µM
Results filed as inconclusive are left out. Activity calls are given as the source filed them. Calls come from the whole dose curve.
The reply should name one outcome from Yes for active, No for inactive

CCOc1ccc(NC(C)=O)cc1 : No

Q) Assay outcome for C1=CC2C3C=CC(C3)C2C1 (centres undefined) : what was it?
A) No

Q) Assay outcome for C1CCC(C(CC2CCCCN2)C2CCCCC2)CC1 (centres undefined) : what was it?
A) Yes

Q) Assay outcome for Nc1c(N=Nc2ccc(-c3ccc(N=Nc4cc(S(=O)(=O)O)c5ccccc5c4N)cc3)cc2)cc(S(=O)(=O)O)c2ccccc12 : what was it?
A) No
